Every entry's value here was drawn from patent US10626112B2.

Tgt: human TRPA1 (Homo sapiens (Human), UniProt O75762)
Sequence (O75762 whole entry): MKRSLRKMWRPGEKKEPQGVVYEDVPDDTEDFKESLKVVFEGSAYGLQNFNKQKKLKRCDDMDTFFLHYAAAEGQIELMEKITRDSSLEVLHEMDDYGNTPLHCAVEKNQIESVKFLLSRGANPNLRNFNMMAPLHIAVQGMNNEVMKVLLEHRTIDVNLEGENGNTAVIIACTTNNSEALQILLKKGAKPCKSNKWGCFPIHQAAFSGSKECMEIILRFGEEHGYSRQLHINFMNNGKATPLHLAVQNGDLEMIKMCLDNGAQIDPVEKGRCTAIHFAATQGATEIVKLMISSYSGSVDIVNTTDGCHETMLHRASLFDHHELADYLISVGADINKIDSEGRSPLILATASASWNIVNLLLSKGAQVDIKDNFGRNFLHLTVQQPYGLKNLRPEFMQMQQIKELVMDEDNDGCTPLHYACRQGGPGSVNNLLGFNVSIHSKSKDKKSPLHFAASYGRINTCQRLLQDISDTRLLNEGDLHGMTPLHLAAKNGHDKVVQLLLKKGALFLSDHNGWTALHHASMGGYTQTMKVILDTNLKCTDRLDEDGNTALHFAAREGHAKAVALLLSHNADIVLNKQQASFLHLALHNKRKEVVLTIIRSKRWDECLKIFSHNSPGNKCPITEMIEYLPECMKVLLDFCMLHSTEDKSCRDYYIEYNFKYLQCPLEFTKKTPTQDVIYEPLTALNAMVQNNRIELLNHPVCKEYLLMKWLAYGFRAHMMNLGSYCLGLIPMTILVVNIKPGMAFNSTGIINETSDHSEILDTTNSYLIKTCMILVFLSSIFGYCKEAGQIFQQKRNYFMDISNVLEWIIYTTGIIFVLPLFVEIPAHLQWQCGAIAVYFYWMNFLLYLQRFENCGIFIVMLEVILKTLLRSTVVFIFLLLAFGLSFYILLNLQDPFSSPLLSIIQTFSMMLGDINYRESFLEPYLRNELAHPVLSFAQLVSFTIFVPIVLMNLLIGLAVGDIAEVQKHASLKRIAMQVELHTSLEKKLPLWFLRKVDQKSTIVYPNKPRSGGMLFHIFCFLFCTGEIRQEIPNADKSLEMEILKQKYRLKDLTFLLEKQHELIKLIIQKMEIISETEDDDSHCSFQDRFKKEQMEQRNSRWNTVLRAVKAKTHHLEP
Test Description: Measurement of TRPA1 antagonist activity (1): intracellular calcium increase
Type: cell-based
Run Parameters: 293T cells transfected with human TRPA1 expression plasmid; allylisothiocyanate 20 μM stimulation; intracellular calcium fluorescence; read-out: hTRPA1 IC50
Measured Attribute: IC50 (nM)
Give the number; nM is assumed, so skip it.

Query C[C@H](NS(=O)(=O)c1cc2cc(F)ccc2o1)C(=O)NCc1cccc(-c2ncc(C(F)(F)F)cn2)c1 yields IC50 of 77

The compound O=C(NCc1cccc(OCc2ccc(C(F)(F)F)cc2)c1)[C@@H]1CCCN1S(=O)(=O)c1cc2ccc(F)cc2o1 showed IC50 equal to 96

The reported value for CN(C)c1cncc(COc2cccc(CNC(=O)[C@@H]3CCCN3S(=O)(=O)c3cc4cc(F)ccc4o3)c2)c1 in terms of IC50 is 110

The measured IC50 associated with O=C(NCc1cc(F)cc(OCc2ccccc2)c1)[C@@H]1CCCN1S(=O)(=O)c1cc2cc(F)ccc2o1 reads 1.6

Value of IC50 reported for the compound O=C(NCc1cc(-c2ccc(C(F)(F)F)cn2)ccn1)[C@@H]1CCCN1S(=O)(=O)c1cc2c(Cl)nccc2o1 is 12

Record O=C(NCc1cccc(OCc2ccc(C(F)(F)F)cc2)c1)[C@@H]1CC(F)(F)CN1S(=O)(=O)c1cc2ccccc2o1 . Reported IC50: 24

// sample C[C@H](NS(=O)(=O)c1cc2cc(F)ccc2o1)C(=O)NCc1cnnc(-c2ccc(C(F)(F)F)cc2)c1 , its IC50 was 170

IC50 measured on C[C@H](NS(=O)(=O)c1cc2cc(F)ccc2o1)C(=O)NCc1cc(-c2cnc(C(F)(F)F)nc2)ncn1 = 20

According to the records, this compound O=C(NCc1cccc(/C=C/c2ccc(C(F)(F)F)cc2)c1)[C@@H]1CCCN1S(=O)(=O)c1cc2ccccc2o1 displays IC50 of 31

get_value(item= O=C(NCc1cccc(OCc2ccncc2)c1)[C@@H]1CCCN1S(=O)(=O)c1cc2cc(F)ccc2o1 , readout=IC50) returns 19

IC50 reading for O=C(NCc1cccc(-c2ccccc2O)n1)[C@@H]1CCCN1S(=O)(=O)c1cc2cc(F)ccc2o1 : 260

IC50 reading for O=C(NCc1ccc(O)c(-c2cnc(C(F)(F)F)cn2)c1)[C@@H]1CCCN1S(=O)(=O)c1cc2ccccc2o1 : 13

Short answer for O=C(NCc1cccc(-c2ccc(C(F)(F)F)nc2)c1)[C@@H]1CCCN1S(=O)(=O)c1cc2cc(F)ccc2o1 : IC50 was 0.41

Per the record, O=C(NCc1ccnc(-c2ccc(F)cc2O)c1)[C@@H]1CCCN1S(=O)(=O)c1cc2ccccc2o1 has IC50 of 32

// IC50 lookup, compound = O=C(NCc1cccc(S(=O)(=O)Cc2ccc(C(F)(F)F)cc2)c1)[C@@H]1CCCN1S(=O)(=O)c1cc2ccccc2o1 , result: 490

The measured IC50 associated with O=C(NCc1cccc(OCc2ccc(C(F)(F)F)cc2)c1)[C@@H]1C[C@@H](O)CN1S(=O)(=O)c1cc2ccccc2o1 reads 130

Record O=C(NCc1cccc(OCC2CCOCC2)c1)[C@@H]1CCCN1S(=O)(=O)c1cc2cc(F)ccc2o1 . Reported IC50: 8.3

Sample N#Cc1ccc(COc2cccc(CNC(=O)[C@@H]3CCCN3S(=O)(=O)c3cc4cc(F)ccc4o3)c2)cc1 ; IC50 observed: 1

Form field IC50, entry O=C(NCc1cccc(Oc2ccc(C(F)(F)F)cc2)c1)[C@@H]1CCCN1S(=O)(=O)c1cc2cnccc2o1 : 4.3

The measured IC50 associated with O=C(NCc1cc(-c2ccc(C(F)(F)F)cn2)ccn1)[C@@H]1CCCN1S(=O)(=O)c1cc2cc(F)ccc2o1 reads 0.88

The measured IC50 associated with O=C(NCc1cccc(-c2ccc(F)cc2)c1)[C@@H]1CCCN1S(=O)(=O)c1cc2cc(F)ccc2o1 reads 4

# IC50 (compound: CNc1ccc(-c2ccc(F)c(CNC(=O)[C@@H]3CCCN3S(=O)(=O)c3cc4ccccc4o3)c2)cn1 ) is 300

The measured IC50 associated with O=C(NCc1ccc(-c2ccc(C(F)(F)F)cc2)cc1)[C@@H]1CCCN1S(=O)(=O)c1cc2ccccc2o1 reads 190

Entry O=C(NCc1cccc(OCc2ccc(C(F)(F)F)cc2)c1)[C@@H]1CCN1S(=O)(=O)c1cc2ccccc2o1 ; IC50 = 6.9

The compound listed as O=C(NCc1cccc(OCc2cccs2)c1)[C@@H]1CCCN1S(=O)(=O)c1cc2ccccc2o1 has a reported IC50 of 12

For COc1ccc(-c2cc(CNC(=O)[C@@H]3CCCN3S(=O)(=O)c3cc4cc(F)ccc4o3)ccn2)cc1 the compound record lists IC50 as 32

The compound listed as C[C@H](NS(=O)(=O)c1cc2cc(F)ccc2o1)C(=O)NCc1cccc(OCc2ccc(C(F)(F)F)cc2)c1 has a reported IC50 of 18

The compound O=C(NCc1cccc(OC2CCOCC2)c1)[C@@H]1CCCN1S(=O)(=O)c1cc2cc(F)ccc2o1 showed IC50 equal to 160
